Test System: fWL, fluorescently labelled H14 foldamer WL
Method Notes: fluorescence polarisation; direct FP: S100 protein diluted in 50 nM labeled foldamer, 20 mM HEPES pH 7.5, 150 mM NaCl, 1 mM CaCl2, 0.5 mM TCEP, 0.01% Tween20; quadratic fit (ProFit); detection threshold Kd 1 mM
pKd: −log10 of the molar value.
Listing: pKd of selected binders
Property Label: pKd

* S100A5 (natural protein) METPLEKALTTMVTTFHKYSGREGSKLTLSRKELKELIKKELCLGEMKESSIDDLMKSLDKNSDQEIDFKEYSVFLTMLCMAYNDFFLEDNK | 4.85
* S100P (natural protein) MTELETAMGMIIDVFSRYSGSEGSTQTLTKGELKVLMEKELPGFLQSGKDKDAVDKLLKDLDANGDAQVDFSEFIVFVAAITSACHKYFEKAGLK | 4.12
